B1: CHMP4C (parent)
chain: SSKSRAAPSPQEALVRLRETEEML

Variants of: B1
testProtocol: protein stability index of a GFP-peptide fusion (GPS, HEK-293T) (PSI 1-6); higher = more stable;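 further: lentivirally expressed fusions sorted by FACS into six bins by GFP to DsRed ratio, PSI derived from sequencing read proportions per bin multiplied by bin number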
conditionSummary: c terminus: a fixed tail appended
Could you please report measured protein stability index for the items listed next?
Numbers only.

>>> df
                          residues  measuredresult
0  SSKSRAAPSPQEALVRLRETEEMW [L24W]            3.92
1   SSKSRFAPSPQEALVRLRETEEML [A6F]            2.83
2  SSKSRAAPSPQEALVRLRETNEML [E21N]            4.49

Record protein stability index per entry; entries follow.
1. SSKSRAAPSPQEALVRRRETEEML [L17R]
2. SSKTRAAPSPQEALVRLRETEEML [S4T]

a:
1: 5.53; 2: 2.58

Record protein stability index per entry; entries follow.
1. SSKSRAAPSPQEALVRLRETEEEL [M23E]
2. SSKSRAAPSPCEALVRLRETEEML [Q11C]
3. SSKSRAAPSPQEALVRLRITEEML [E19I]
4. SSKSRAAPSPQEAYVRLRETEEML [L14Y]
5. SCKSRAAPSPQEALVRLRETEEML [S2C]
6. SSKSRAAPSPQEALVRLRETEETL [M23T]

a:
1: 2.08; 2: 1.78; 3: 4.1; 4: 2.49; 5: 2.38; 6: 3.55

Record protein stability index per entry; entries follow.
1. SSKSRAAPSPQEAFVRLRETEEML [L14F]
2. SSKSRATPSPQEALVRLRETEEML [A7T]

a:
4.77
4.48

Record protein stability index per entry; entries follow.
1. SSKSRAAPSPQEALVRLRETEEME [L24E]
2. SSKSRAAPSPQELLVRLRETEEML [A13L]
3. SSKSRNAPSPQEALVRLRETEEML [A6N]
4. VSKSRAAPSPQEALVRLRETEEML [S1V]
5. SSKSRAAPSPQEALVRLRETEEMI [L24I]
6. SSKSRAAPSPQEALMRLRETEEML [V15M]

a:
[5.94, 2.06, 1.61, 3.02, 2.52, 2.17]
